System: HepG2
measurementProtocol: NCI-60 sulforhodamine B (SRB) cytotoxicity assay, HepG2
Assay type: cell-based, human
assayContext: Homo sapiens, HepG2, 72 h, read-out: IC50 HepG2
metricName: IC50 (µM)
The response must be a number in µM with no trailing unit.

### Prompt Field request: IC50 | item: COc1ccc(/C=C/C(=O)c2ccccc2)cc1 [compound 6]
### Response 7.6

---

System: Hep3B
measurementProtocol: NCI-60 sulforhodamine B (SRB) cytotoxicity assay, Hep3B
Assay type: cell-based, human
assayContext: Homo sapiens, Hep3B; SRB, 72 h, 2.5–40 μM, triplicate; read-out: IC50 Hep3B
pIC50: −log10 of the molar value. Where a name gives a salt, the structure may show the parent alone.
Returns one of label 1 or label 0; label 1 when pIC50 is >= 5.

### Prompt Threshold query (pIC50 >= 5) on O=C(/C=C/c1cccc([N+](=O)[O-])c1)c1ccccc1 [compound 4]
### Response label 0

### Prompt Threshold query (pIC50 >= 5) on COc1ccc(Cc2nccc3cc(OC)c(OC)cc23)cc1OC [Papaverine hydrochloride, reference compound]
### Response label 0

### Prompt Threshold query (pIC50 >= 5) on O=C(/C=C/c1ccc(Cl)cc1)c1ccccc1 [compound 11]
### Response label 1

### Prompt Threshold query (pIC50 >= 5) on O=c1c(O)c(-c2ccc(O)c(O)c2)oc2cc(O)cc(O)c12 [Quercetin, reference compound]
### Response label 0

### Prompt Threshold query (pIC50 >= 5) on COc1ccc(C(=O)/C=C/c2ccccc2)cc1 [compound 3]
### Response label 0

### Prompt Threshold query (pIC50 >= 5) on COc1ccc(C(=O)/C=C/c2cccc([N+](=O)[O-])c2)cc1 [compound 1]
### Response label 1

### Prompt Threshold query (pIC50 >= 5) on COc1ccc(C(=O)/C=C/c2ccc(Cl)cc2)cc1 [compound 10]
### Response label 0

### Prompt Threshold query (pIC50 >= 5) on COc1ccc(/C=C/C(=O)c2cccc([N+](=O)[O-])c2)cc1 [compound 7]
### Response label 0

### Prompt Threshold query (pIC50 >= 5) on COc1ccc(/C=C/C(=O)c2ccc(OC)cc2)cc1 [compound 8]
### Response label 0

### Prompt Threshold query (pIC50 >= 5) on O=c1[nH]cc(F)c(=O)[nH]1 [5-Fluorouracil, reference compound]
### Response label 0
